Hey, just so you know, these numbers are from paper PMC5016687.

# Measured on: FrmRP2S (Salmonella enterica serovar Typhimurium …, UniProt A0A0H3NLH8 1-91, P2S)
# Assay procedure: fluorescence anisotropy; 5 mM EDTA, apo; 10 mM HEPES pH 7.0, 60 mM NaCl, 240 mM KCl, 5 mM EDTA (or 5 uM NiCl2/CoCl2), 25 C, 10 nM DNA; anaerobic except FrmRC35A; Kd per tetramer (two nondissociable tet)
# Condition set: protein: recombinant; chain copies: 8
Recorded metric: Kd (nM)
Give the quantity in nM, number only.

Output Kd of frmRAPro (dsDNA) DNA 1: TTCTGATAGTATACCCCCCTATAGTATATGGAG DNA 2: CTCCATATACTATAGGGGGGTATACTATCAGAA
150
